All figures here come from paper PMC8612984.

tested system: T1, C1r-CCP2-SP, recombinant autoactivated domain truncation of human C1r (human, UniProt P00736 375-703)
T1 sequence: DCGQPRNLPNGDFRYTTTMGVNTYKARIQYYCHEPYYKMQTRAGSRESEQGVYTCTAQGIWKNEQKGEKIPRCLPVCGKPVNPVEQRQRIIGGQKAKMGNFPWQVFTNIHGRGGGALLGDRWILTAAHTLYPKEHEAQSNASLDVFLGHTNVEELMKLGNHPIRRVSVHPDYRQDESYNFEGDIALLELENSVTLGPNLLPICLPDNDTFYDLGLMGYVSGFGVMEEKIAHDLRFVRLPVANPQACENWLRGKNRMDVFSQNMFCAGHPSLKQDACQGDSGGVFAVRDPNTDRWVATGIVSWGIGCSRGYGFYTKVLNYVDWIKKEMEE
test protocol: SPR
endpoint: Kd (nM)
The answer is to be given in nM; state only the numeric part.

Some entries whose results are on file:
binder	Kd (nM)
BBK32-C L236A-T239A (domain or fragment, B. burgdorferi B31, UniProt O50835 206-348, looked up) SNRYQSYLEGVKYNVDSAIQTITKIYNTYTAFSAKLTQMYSTRLDNFAKAKAKEEAAKFTKEDLEKNFKTLLNYIQVSVKTAANFVYINDTHAKRKLENIEAEIKTLIAKIKEQSNLYEAYKAIVTSILLMRDSLKEVQGIID	0.18
BBK32-C T239A (domain or fragment, B. burgdorferi B31, UniProt O50835 206-348, looked up) SNRYQSYLEGVKYNVDSAIQTITKIYNTYTLFSAKLTQMYSTRLDNFAKAKAKEEAAKFTKEDLEKNFKTLLNYIQVSVKTAANFVYINDTHAKRKLENIEAEIKTLIAKIKEQSNLYEAYKAIVTSILLMRDSLKEVQGIID	0.17
BBK32-C T331A (domain or fragment, B. burgdorferi B31, UniProt O50835 206-348, looked up) SNRYQSYLEGVKYNVDSAIQTITKIYNTYTLFSTKLTQMYSTRLDNFAKAKAKEEAAKFTKEDLEKNFKTLLNYIQVSVKTAANFVYINDTHAKRKLENIEAEIKTLIAKIKEQSNLYEAYKAIVASILLMRDSLKEVQGIID	0.73
BBK32-C K327A (domain or fragment, B. burgdorferi B31, UniProt O50835 206-348, looked up) SNRYQSYLEGVKYNVDSAIQTITKIYNTYTLFSTKLTQMYSTRLDNFAKAKAKEEAAKFTKEDLEKNFKTLLNYIQVSVKTAANFVYINDTHAKRKLENIEAEIKTLIAKIKEQSNLYEAYAAIVTSILLMRDSLKEVQGIID	120
BBK32-C E324A (domain or fragment, B. burgdorferi B31, UniProt O50835 206-348, looked up) SNRYQSYLEGVKYNVDSAIQTITKIYNTYTLFSTKLTQMYSTRLDNFAKAKAKEEAAKFTKEDLEKNFKTLLNYIQVSVKTAANFVYINDTHAKRKLENIEAEIKTLIAKIKEQSNLYAAYKAIVTSILLMRDSLKEVQGIID	1.6

q: // returns reported Kd for input BBK32-C K327A-T331A (domain or fragment, B. burgdorferi B31, UniProt O50835 206-348, looked up) SNRYQSYLEGVKYNVDSAIQTITKIYNTYTLFSTKLTQMYSTRLDNFAKAKAKEEAAKFTKEDLEKNFKTLLNYIQVSVKTAANFVYINDTHAKRKLENIEAEIKTLIAKIKEQSNLYEAYAAIVASILLMRDSLKEVQGIID
a: 510

q: Entry BBK32-C N251A (domain or fragment, B. burgdorferi B31, UniProt O50835 206-348, looked up) SNRYQSYLEGVKYNVDSAIQTITKIYNTYTLFSTKLTQMYSTRLDAFAKAKAKEEAAKFTKEDLEKNFKTLLNYIQVSVKTAANFVYINDTHAKRKLENIEAEIKTLIAKIKEQSNLYEAYKAIVTSILLMRDSLKEVQGIID please
a: 0.61
